Target: UniProt:P08183
Sequence (P08183 whole entry): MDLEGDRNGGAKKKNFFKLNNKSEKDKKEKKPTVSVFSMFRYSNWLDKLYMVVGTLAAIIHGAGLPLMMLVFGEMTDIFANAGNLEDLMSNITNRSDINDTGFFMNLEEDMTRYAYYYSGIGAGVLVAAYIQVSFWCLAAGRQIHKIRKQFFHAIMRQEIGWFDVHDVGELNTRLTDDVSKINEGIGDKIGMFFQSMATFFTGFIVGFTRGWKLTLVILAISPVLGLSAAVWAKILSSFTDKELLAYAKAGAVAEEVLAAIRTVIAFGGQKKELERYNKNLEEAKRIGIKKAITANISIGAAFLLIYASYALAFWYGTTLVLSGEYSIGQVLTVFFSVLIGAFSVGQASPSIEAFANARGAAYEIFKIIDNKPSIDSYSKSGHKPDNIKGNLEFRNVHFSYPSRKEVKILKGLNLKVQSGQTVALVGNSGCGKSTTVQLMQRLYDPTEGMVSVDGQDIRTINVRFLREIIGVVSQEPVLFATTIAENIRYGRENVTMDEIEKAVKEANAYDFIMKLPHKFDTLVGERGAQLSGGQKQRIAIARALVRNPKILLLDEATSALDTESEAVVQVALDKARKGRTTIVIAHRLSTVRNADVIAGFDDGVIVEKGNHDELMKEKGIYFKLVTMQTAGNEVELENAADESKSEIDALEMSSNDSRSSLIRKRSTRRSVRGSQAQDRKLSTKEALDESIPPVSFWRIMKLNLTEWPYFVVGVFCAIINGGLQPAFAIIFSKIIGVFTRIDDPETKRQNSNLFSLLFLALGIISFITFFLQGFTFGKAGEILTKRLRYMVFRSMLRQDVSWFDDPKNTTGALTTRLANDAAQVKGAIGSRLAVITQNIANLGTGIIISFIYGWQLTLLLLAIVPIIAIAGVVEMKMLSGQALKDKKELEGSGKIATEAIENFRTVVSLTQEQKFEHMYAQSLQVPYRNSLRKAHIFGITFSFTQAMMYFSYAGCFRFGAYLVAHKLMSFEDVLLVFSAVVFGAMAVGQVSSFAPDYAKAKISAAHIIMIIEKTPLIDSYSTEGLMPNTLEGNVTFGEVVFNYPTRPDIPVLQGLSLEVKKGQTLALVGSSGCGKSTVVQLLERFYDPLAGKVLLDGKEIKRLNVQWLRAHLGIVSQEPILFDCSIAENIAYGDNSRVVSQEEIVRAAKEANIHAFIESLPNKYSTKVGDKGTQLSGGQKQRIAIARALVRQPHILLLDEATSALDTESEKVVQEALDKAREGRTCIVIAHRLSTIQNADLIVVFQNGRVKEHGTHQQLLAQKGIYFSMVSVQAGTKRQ
Test: Permeability assay, LLC-PK1-MDR1 cells overexpressing P-gp
Conditions: human, LLC-PK1
MEASURED ENDPOINT: efflux ratio at 2 h, 2 µM
Answer as a number with no unit attached.

• COCCc1ccc(OCC(O)CNC(C)C)cc1 (centres unmarked) = 1.13

Next:
Just so you know, measured efflux ratio at 2 h, 2 µM for `C[C@H]1O[C@@H](O[C@H]2[C@@H](O)C[C@H](O[C@H]3[C@@H](O)C[C@H](O[C@H]4CC[C@@]5(C)[C@H](CC[C@@H]6[C@@H]5C[C@@H](O)[C@]5(C)[C@@H](C7=CC(=O)OC7)CC[C@]65O)C4)O[C@@H]3C)O[C@@H]2C)C[C@H](O)[C@@H]1O` came out at 13.1

----------
Assay: Bidirectional transport, Calu-3 air-liquid culture model
Conditions: human
MEASURED ENDPOINT: efflux ratio at 2 h, 2 µM
Answer as a number with no unit attached.

Just so you know, measured efflux ratio at 2 h, 2 µM for COCCc1ccc(OCC(O)CNC(C)C)cc1 (stereo not shown) came out at 29.8

----------
Assay: Bidirectional transport, Calu-3 air-liquid culture model
Settings: human
MEASURED ENDPOINT: Papp B→A at 2 h, 2 µM (×10⁻⁶ cm/s)
The reply should contain only the number, in ×10⁻⁶ cm/s.

* COCCc1ccc(OCC(O)CNC(C)C)cc1 (centres unmarked) | 21.9

Next:
Just so you know, measured Papp B→A at 2 h, 2 µM for `C[C@H]1O[C@@H](O[C@H]2[C@@H](O)C[C@H](O[C@H]3[C@@H](O)C[C@H](O[C@H]4CC[C@@]5(C)[C@H](CC[C@@H]6[C@@H]5C[C@@H](O)[C@]5(C)[C@@H](C7=CC(=O)OC7)CC[C@]65O)C4)O[C@@H]3C)O[C@@H]2C)C[C@H](O)[C@@H]1O` came out at 25.1

----------
System: P-gp
Assay: Bidirectional transport, Calu-3 air-liquid culture model
Conditions: human, with tariquidar 5 µM
MEASURED ENDPOINT: efflux ratio at 2 h, 2 µM

Just so you know, measured efflux ratio at 2 h, 2 µM for `C[C@H]1O[C@@H](O[C@H]2[C@@H](O)C[C@H](O[C@H]3[C@@H](O)C[C@H](O[C@H]4CC[C@@]5(C)[C@H](CC[C@@H]6[C@@H]5C[C@@H](O)[C@]5(C)[C@@H](C7=CC(=O)OC7)CC[C@]65O)C4)O[C@@H]3C)O[C@@H]2C)C[C@H](O)[C@@H]1O` came out at ~1

----------
Experiment: Bidirectional transport, NCI-H441 air-liquid culture model
Assay type: in vitro ADME, human
Settings: human; NCI-H441, 2 μM, Mean ± SD, n = 3
MEASURED ENDPOINT: Papp A→B at 2 h, 2 µM (×10⁻⁶ cm/s)
The reply should contain only the number, in ×10⁻⁶ cm/s.

• COCCc1ccc(OCC(O)CNC(C)C)cc1 (centres unmarked) = 25.6

Next:
Just so you know, measured Papp A→B at 2 h, 2 µM for `CC[C@@]1(O)C(=O)OCc2c1cc1n(c2=O)Cc2cc3c(CN(C)C)c(O)ccc3nc2-1` came out at 1.54

----------
Test: Bidirectional transport, NCI-H441 air-liquid culture model
Type: in vitro ADME, human
Details: human; NCI-H441, 2 μM, Mean ± SD, n = 3
MEASURED ENDPOINT: Papp B→A at 2 h, 2 µM
Returns: string containing the number followed by the unit.

- CC[C@@]1(O)C(=O)OCc2c1cc1n(c2=O)Cc2cc3c(CN(C)C)c(O)ccc3nc2-1: 3.47 ×10⁻⁶ cm/s

Next:
Just so you know, measured Papp B→A at 2 h, 2 µM for COCCc1ccc(OCC(O)CNC(C)C)cc1 (centres unmarked) came out at 23.4 ×10⁻⁶ cm/s
